# Tested on: E. coli (DSM1116, ATCC 9637)
# Assay Details: microbe, parasite or virus in culture
# Assay type: cell-based, Escherichia coli
# Experimental Conditions: Müller-Hinton Broth without additive, ± SE
Kindly supply the reported MIC E. coli DSM 1116 in MHB values for the records listed here.
Quote the value and follow it with the unit of measurement.

Batch request: MIC E. coli DSM 1116 in MHB per item, same order as input.
1. O=[N+]([O-])[O-].[Ag+] [AgNO3, Silver nitrate, reference compound]
2. CC(C)n1[c](=[Ag][I])n(Cc2ccccn2)c2ccccc21
3. CC(C)n1[c](=[Ag][Cl])n(Cc2ccccn2)c2ccccc21
4. CC(C)n1[c](=[Ag][Br])n(Cc2ccccn2)c2ccccc21

A)
1: 5.89 ± 0.0 µM; 2: 11.0 ± 2.7 µM; 3: 40.5 ± 0.0 µM; 4: 36.4 ± 0.0 µM

The origin of these recorded values is paper PMC11091889.
